Assay: activity coefficient (dimensionless); of the first substance listed, at infinite dilution; xn = mol fraction of the nth substance listed
Conditions: 343.15 K; 101 kPa; Liquid; Chromatography; x1 = 0
Quantity kind: activity coefficient

Compound	Value observed
Cc1cccc(C)c1 [1,3-dimethylbenzene] + CCCC[N+]1(C)CCCC1.O=S(=O)([N-]S(=O)(=O)C(F)(F)F)C(F)(F)F	1.83
CC1CCCCC1 [methylcyclohexane] + CCC[N+]1(C)CCCC1.O=S(=O)([N-]S(=O)(=O)C(F)(F)F)C(F)(F)F	12.2
c1ccncc1 [pyridine] + CCCC[N+]1(C)CCCC1.O=S(=O)([N-]S(=O)(=O)C(F)(F)F)C(F)(F)F	0.59
CCCCCC [hexane] + CCCC[N+]1(C)CCCC1.O=S(=O)([N-]S(=O)(=O)C(F)(F)F)C(F)(F)F	12.6
CC(C)CO [2-methyl-1-propanol] + CCC[N+]1(C)CCCC1.O=S(=O)([N-]S(=O)(=O)C(F)(F)F)C(F)(F)F	2.1
CCN(CC)CC [triethylamine] + CCC[N+]1(C)CCCC1.O=S(=O)([N-]S(=O)(=O)C(F)(F)F)C(F)(F)F	7.19
CCCCCCCCCCC [undecane] + CCCC[N+]1(C)CCCC1.O=S(=O)([N-]S(=O)(=O)C(F)(F)F)C(F)(F)F	61.1
CCCCCCCC [octane] + CCCC[N+]1(C)CCCC1.O=S(=O)([N-]S(=O)(=O)C(F)(F)F)C(F)(F)F	23.5
CC#N [acetonitrile] + CCCC[N+]1(C)CCCC1.O=S(=O)([N-]S(=O)(=O)C(F)(F)F)C(F)(F)F	0.5
Cc1ccc(C)cc1 [1,4-dimethylbenzene] + CCC[N+]1(C)CCCC1.O=S(=O)([N-]S(=O)(=O)C(F)(F)F)C(F)(F)F	2.03
CC(C)CO [2-methyl-1-propanol] + CCCC[N+]1(C)CCCC1.O=S(=O)([N-]S(=O)(=O)C(F)(F)F)C(F)(F)F	1.92
CO [methanol] + CCC[N+]1(C)CCCC1.O=S(=O)([N-]S(=O)(=O)C(F)(F)F)C(F)(F)F	1.15
Cc1ccccc1C [1,2-dimethylbenzene] + CCCC[N+]1(C)CCCC1.O=S(=O)([N-]S(=O)(=O)C(F)(F)F)C(F)(F)F	1.66
CCCC(C)=O [pentan-2-one] + CCC[N+]1(C)CCCC1.O=S(=O)([N-]S(=O)(=O)C(F)(F)F)C(F)(F)F	0.91

###

Test: activity coefficient (dimensionless); of the first substance listed, at infinite dilution; xn = mol fraction of the nth substance listed
Conditions: 343.15 K; 101 kPa; Liquid; Chromatography; x1 = 0
The entries below are paired with their reported activity coefficient.

Compound	activity coefficient
Cc1cccc(C)c1 [1,3-dimethylbenzene] + CCC[N+]1(C)CCCC1.O=S(=O)([N-]S(=O)(=O)C(F)(F)F)C(F)(F)F	2.05
C=CCCCC [hex-1-ene] + CCCC[N+]1(C)CCCC1.O=S(=O)([N-]S(=O)(=O)C(F)(F)F)C(F)(F)F	7.12
CCC[N+](=O)[O-] [1-nitropropane] + CCC[N+]1(C)CCCC1.O=S(=O)([N-]S(=O)(=O)C(F)(F)F)C(F)(F)F	0.77
CCCCCCCCC [nonane] + CCCC[N+]1(C)CCCC1.O=S(=O)([N-]S(=O)(=O)C(F)(F)F)C(F)(F)F	34.7
C1COCCO1 [1,4-dioxane] + CCCC[N+]1(C)CCCC1.O=S(=O)([N-]S(=O)(=O)C(F)(F)F)C(F)(F)F	0.72
C1CCCCC1 [cyclohexane] + CCCC[N+]1(C)CCCC1.O=S(=O)([N-]S(=O)(=O)C(F)(F)F)C(F)(F)F	7.59
CCCC(C)=O [pentan-2-one] + CCCC[N+]1(C)CCCC1.O=S(=O)([N-]S(=O)(=O)C(F)(F)F)C(F)(F)F	0.82

###

Assay: activity coefficient (dimensionless); of the first substance listed, at infinite dilution; xn = mol fraction of the nth substance listed
Conditions: 343.15 K; 101 kPa; Liquid; Chromatography; x1 = 0
# Lookup of reported activity coefficient keyed by entry

Compound	activity coefficient
CCCCCCCCCCC [undecane] + CCC[N+]1(C)CCCC1.O=S(=O)([N-]S(=O)(=O)C(F)(F)F)C(F)(F)F	85.1
CCOCC [diethyl ether] + CCCC[N+]1(C)CCCC1.O=S(=O)([N-]S(=O)(=O)C(F)(F)F)C(F)(F)F	2.6
C#CCCCCC [1-heptyne] + CCC[N+]1(C)CCCC1.O=S(=O)([N-]S(=O)(=O)C(F)(F)F)C(F)(F)F	4.51
CCCCCCCCC [nonane] + CCC[N+]1(C)CCCC1.O=S(=O)([N-]S(=O)(=O)C(F)(F)F)C(F)(F)F	47.5
CCO [ethanol] + CCCC[N+]1(C)CCCC1.O=S(=O)([N-]S(=O)(=O)C(F)(F)F)C(F)(F)F	1.43
Cc1ccccc1 [toluene] + CCCC[N+]1(C)CCCC1.O=S(=O)([N-]S(=O)(=O)C(F)(F)F)C(F)(F)F	1.29
CC(C)OC(C)C [diisopropyl ether] + CCC[N+]1(C)CCCC1.O=S(=O)([N-]S(=O)(=O)C(F)(F)F)C(F)(F)F	5.53

###

activity coefficient overview
Assay: activity coefficient (dimensionless); of the first substance listed, at infinite dilution; xn = mol fraction of the nth substance listed
Details: 343.15 K; 101 kPa; Liquid; Chromatography; x1 = 0

Compound	activity coefficient
CC(C)O [propan-2-ol] + CCCC[N+]1(C)CCCC1.O=S(=O)([N-]S(=O)(=O)C(F)(F)F)C(F)(F)F	1.57
CCCCO [butan-1-ol] + CCCC[N+]1(C)CCCC1.O=S(=O)([N-]S(=O)(=O)C(F)(F)F)C(F)(F)F	2.08
CCCO [propan-1-ol] + CCC[N+]1(C)CCCC1.O=S(=O)([N-]S(=O)(=O)C(F)(F)F)C(F)(F)F	1.79
CCCCCCCCCC [decane] + CCC[N+]1(C)CCCC1.O=S(=O)([N-]S(=O)(=O)C(F)(F)F)C(F)(F)F	60
C1COCCO1 [1,4-dioxane] + CCC[N+]1(C)CCCC1.O=S(=O)([N-]S(=O)(=O)C(F)(F)F)C(F)(F)F	0.76
c1ccsc1 [thiophene] + CCCC[N+]1(C)CCCC1.O=S(=O)([N-]S(=O)(=O)C(F)(F)F)C(F)(F)F	0.84
CCC(C)CC [3-methylpentane] + CCCC[N+]1(C)CCCC1.O=S(=O)([N-]S(=O)(=O)C(F)(F)F)C(F)(F)F	11
CCC[N+](=O)[O-] [1-nitropropane] + CCCC[N+]1(C)CCCC1.O=S(=O)([N-]S(=O)(=O)C(F)(F)F)C(F)(F)F	0.73
c1ccncc1 [pyridine] + CCC[N+]1(C)CCCC1.O=S(=O)([N-]S(=O)(=O)C(F)(F)F)C(F)(F)F	0.64
CCC(C)=O [butanone] + CCCC[N+]1(C)CCCC1.O=S(=O)([N-]S(=O)(=O)C(F)(F)F)C(F)(F)F	0.46
CCC(=O)CC [pentan-3-one] + CCC[N+]1(C)CCCC1.O=S(=O)([N-]S(=O)(=O)C(F)(F)F)C(F)(F)F	0.86
CC1CCCC1 [methylcyclopentane] + CCCC[N+]1(C)CCCC1.O=S(=O)([N-]S(=O)(=O)C(F)(F)F)C(F)(F)F	7.85
ClC(Cl)(Cl)Cl [tetrachloromethane] + CCCC[N+]1(C)CCCC1.O=S(=O)([N-]S(=O)(=O)C(F)(F)F)C(F)(F)F	2.47
C#CCCCCC [1-heptyne] + CCCC[N+]1(C)CCCC1.O=S(=O)([N-]S(=O)(=O)C(F)(F)F)C(F)(F)F	3.94
CCCCCCCC [octane] + CCC[N+]1(C)CCCC1.O=S(=O)([N-]S(=O)(=O)C(F)(F)F)C(F)(F)F	30.6
CC1CCCC1 [methylcyclopentane] + CCC[N+]1(C)CCCC1.O=S(=O)([N-]S(=O)(=O)C(F)(F)F)C(F)(F)F	9.16
C1CCCCC1 [cyclohexane] + CCC[N+]1(C)CCCC1.O=S(=O)([N-]S(=O)(=O)C(F)(F)F)C(F)(F)F	8.53

###

Test: activity coefficient (dimensionless); of the first substance listed, at infinite dilution; xn = mol fraction of the nth substance listed
Conditions: 323.15 K; 101 kPa; Liquid; Chromatography; x1 = 0
Recorded activity coefficient split into classes category 1: < 1; category 2: ≥ 1 and < 3; category 3: ≥ 3

Compound	Assigned label
c1ccsc1 [thiophene] + CCC[N+]1(C)CCCC1.O=S(=O)([N-]S(=O)(=O)C(F)(F)F)C(F)(F)F	category 1
Cc1ccccc1C [1,2-dimethylbenzene] + CCCC[N+]1(C)CCCC1.O=S(=O)([N-]S(=O)(=O)C(F)(F)F)C(F)(F)F	category 2
CCCCO [butan-1-ol] + CCCC[N+]1(C)CCCC1.O=S(=O)([N-]S(=O)(=O)C(F)(F)F)C(F)(F)F	category 2
ClC(Cl)Cl [trichloromethane] + CCC[N+]1(C)CCCC1.O=S(=O)([N-]S(=O)(=O)C(F)(F)F)C(F)(F)F	category 1
CCOCC [diethyl ether] + CCC[N+]1(C)CCCC1.O=S(=O)([N-]S(=O)(=O)C(F)(F)F)C(F)(F)F	category 2
Cc1ccccc1 [toluene] + CCCC[N+]1(C)CCCC1.O=S(=O)([N-]S(=O)(=O)C(F)(F)F)C(F)(F)F	category 2
CCc1ccccc1 [ethylbenzene] + CCCC[N+]1(C)CCCC1.O=S(=O)([N-]S(=O)(=O)C(F)(F)F)C(F)(F)F	category 2
CCCCCC [hexane] + CCC[N+]1(C)CCCC1.O=S(=O)([N-]S(=O)(=O)C(F)(F)F)C(F)(F)F	category 3
CC#N [acetonitrile] + CCCC[N+]1(C)CCCC1.O=S(=O)([N-]S(=O)(=O)C(F)(F)F)C(F)(F)F	category 1
CCCO [propan-1-ol] + CCCC[N+]1(C)CCCC1.O=S(=O)([N-]S(=O)(=O)C(F)(F)F)C(F)(F)F	category 2
Cc1cccc(C)c1 [1,3-dimethylbenzene] + CCCC[N+]1(C)CCCC1.O=S(=O)([N-]S(=O)(=O)C(F)(F)F)C(F)(F)F	category 2
CCCCCCCCC [nonane] + CCC[N+]1(C)CCCC1.O=S(=O)([N-]S(=O)(=O)C(F)(F)F)C(F)(F)F	category 3
